// reported viability at 72 h, 1.25 ug/ml per item
- ASSAY PROTOCOL: Cytotoxicity against human U937 cells assessed as cell viability at 1.25 ug/ml after 72 hrs by MTT assay
- Format: cell-based, U-937
- CONDITIONS: read-out: Activity
EXPERIMENTAL ENDPOINT: viability at 72 h, 1.25 ug/ml

INSERT INTO assay_data (compound, result) VALUES
  ('CCCCCCCCC(=O)OC1(C)c2ccccc2-c2c1c(-n1ccnc1)nc1ccc(Br)cc21 (configuration not stated)', '86%'),
  ('CCCC(=O)O/N=C1\c2ccccc2-c2c1c(-n1ccnc1)nc1ccc(Br)cc21', '85%'),
  ('CCCCC(=O)OC1(C)c2ccccc2-c2c1c(-n1ccnc1)nc1ccc(Br)cc21 (configuration not stated)', '91%'),
  ('CC(C)(C)OC(=O)N1CCC[C@H]1C(=O)O/N=C1\c2ccccc2-c2c1c(N1CCN(c3ccccn3)CC1)nc1ccc(Br)cc21', '86%'),
  ('CCCCCC(=O)O/N=C1\c2ccccc2-c2c1c(-n1ccnc1)nc1ccc(Br)cc21', '81%'),
  ('CCCCCCC(=O)OC1(C)c2ccccc2-c2c1c(-n1ccnc1)nc1ccc(Br)cc21 (configuration not stated)', '85%'),
  ('CC(=O)OC1(C)c2ccccc2-c2c1c(-n1ccnc1)nc1ccc(Br)cc21 (configuration not stated)', '94%');
